System: SK-MEL-28 melanoma
Test: NCI tumour cell line growth inhibition, 48 h; in the data active means GI50 below about 0.43 µM; inactive means the rest
Allowed answers: active, inactive

CC1(C)CCC[C@]23C(=O)O[C@](O)(C(=O)C4=C[C@@](C)(/C=C/CCCc5ccc6ccc7cccc8ccc5c6c78)CC[C@@]42O)[C@@H]13	active

Inquiry: Dear colleague, could you share the recorded outcome for COc1ccc2c(c1)CCC1C2CC[C@@]2(C)C1CC[C@@]2(O)CNC(=O)/C=C/c1ccc(O)c(OC)c1 (some centres not stated) when you have a moment?
Reply text: inactive

Inquiry: Dear colleague, could you share the recorded outcome for CN(C)CCCNc1nn2c(=O)c3ccccc3nc2c2ccccc12 when you have a moment?
Reply text: inactive

Inquiry: Dear colleague, could you share the recorded outcome for CCSc1oc(-c2ccccc2)nc1[P+](c1ccccc1)(c1ccccc1)c1ccccc1 when you have a moment?
Reply text: inactive

Inquiry: Dear colleague, could you share the recorded outcome for COc1ccc(N2CCN(C(=O)c3ccccc3Nc3ccnc(C(F)(F)F)c3)CC2)cc1 when you have a moment?
Reply text: inactive

Inquiry: Dear colleague, could you share the recorded outcome for Nc1ncnc2c1c(C(F)(F)F)cn2[C@@H]1O[C@H](CO)[C@@H](O)[C@H]1O when you have a moment?
Reply text: inactive

Inquiry: Dear colleague, could you share the recorded outcome for CC(CN=C(CC(=O)c1ccc(Br)cc1)c1ccccc1)N=C(CC(=O)c1ccc(Br)cc1)c1ccccc1 (configuration not stated) when you have a moment?
Reply text: inactive

----------
Test system: MOLT-4 leukemia
Experiment: NCI tumour cell line growth inhibition, 48 h
TGI values by entry
Kindly answer with a numeric value in µM, unit omitted.

Here are 2 compounds together with their reported answers.
Cc1ccc2nc3c(C)c(Cl)c(=O)cc-3sc2c1	41.3
COC(=O)C[CH](C(=O)OC)[Ge]([CH3])([CH3])[S]c1ccccc1 (stereo unspecified)	18.4

Proceeding to the next compound to report its TGI.
Inquiry: Tell me the measured TGI of COc1ccc(C2OC(=O)c3c2ccc2ccccc32)c(C)c1 (stereo unspecified) , please.
Reply text: 37

----------
System: SNB-75 CNS
Assay: NCI tumour cell line growth inhibition, 48 h; in the data active = GI50 below about 0.43 µM; inactive = the rest
Allowed answers: active, inactive

Examples with answers:
COc1ccc(/C(C)=C(\c2ccc(Cl)cc2)c2ccc(OCCN3CCCC3)cc2)cc1	inactive
COC(=O)C[CH](C(=O)OC)[Ge]([CH3])([CH3])[S]c1ccccc1 (stereo not given)	inactive
C#CCN1C(=O)/C(=c2\sc3n(c2=O)C2C(NN=3)N(CC)C(=O)N2CC)c2ccccc21 (stereo not given)	active

Inquiry: Dear colleague, could you share the recorded outcome for C=C1CCC2C3(C)COC(c4ccc(NC(C)=O)cc4)OC3CCC2(C)C1C/C=C1/C(=O)OCC1O (stereo not given) when you have a moment?
Reply text: inactive

Inquiry: Dear colleague, could you share the recorded outcome for COc1ccc(/C=C/c2c(C(=O)/C=C/c3ccc(Cl)cc3)c(C)nc3ccccc23)cc1 when you have a moment?
Reply text: inactive

Inquiry: Dear colleague, could you share the recorded outcome for Oc1ccc2oc3ncc(Cl)c(-c4ccccc4)c3c2c1 when you have a moment?
Reply text: inactive

Inquiry: Dear colleague, could you share the recorded outcome for OC(c1ccc(Cl)cc1)(c1ccc(Cl)cc1)C(O)(c1ccc(Cl)cc1)c1ccc(Cl)cc1 when you have a moment?
Reply text: inactive

Inquiry: Dear colleague, could you share the recorded outcome for C=C(C=O)C1CC(=O)C(C(=O)OC)[C@@H]2O[C@@](C)(CC2=O)C[C@@H]2OC(=O)[C@]3(O[C@@H]23)[C@@H](C(=O)OC)C1 (stereo not given in full) when you have a moment?
Reply text: inactive

Inquiry: Dear colleague, could you share the recorded outcome for O=C(NCc1cccnc1)/C(=C\c1ccc(Br)cc1)S(=O)(=O)c1ccccc1 when you have a moment?
Reply text: inactive

Inquiry: Dear colleague, could you share the recorded outcome for CC(CN=C(CC(=O)c1ccc(Br)cc1)c1ccccc1)N=C(CC(=O)c1ccc(Br)cc1)c1ccccc1 (stereo not given) when you have a moment?
Reply text: inactive

----------
Test system: CAKI-1 renal
Test: NCI tumour cell line growth inhibition, 48 h
Measured property: TGI

Here are 5 molecules together with their reported answers.
COc1ccc2cccc(C(=O)c3ccc(C)c4c3CCC4)c2c1	80.8 µM
CCN(CC)CCN1C(=O)c2c(c(C)c3c(oc4cc(O)ccc43)c2C)C1=O	3.06 µM
Cc1cccc(NC(=O)C(=O)C2C(=O)NC(=O)NC2=O)c1C	> 100 µM
N#CC1=C(N)C(C#N)(C#N)C(c2ccc(F)cc2)C=C1C1CC1 (configuration not stated)	28.2 µM
O=C(N/N=C(/c1nc2ccc(Cl)cc2[nH]c1=O)C(O)c1ccc(Cl)cc1Cl)c1ccncc1 (configuration not stated)	> 100 µM

Inquiry: Tell me the measured TGI of COc1ccc(-c2ccc(/C=C/C(=O)NO)cc2)cc1 , please.
Reply text: 6.11 µM

Inquiry: Tell me the measured TGI of C#CCNC(Cc1cnc[nH]1)C(=O)O (configuration not stated) , please.
Reply text: > 100 µM

----------
Test system: CAKI-1 renal
Experiment: NCI tumour cell line growth inhibition, 48 h
Measured property: TGI

Here are 5 compounds together with their reported answers.
COc1cc(C)c(C(=O)O[C@H]2[C@H](O[C@H]3[C@@H](O)COC(O[C@H]4C[C@H]5[C@@H]6CC=C7C[C@@H](O)CC[C@]7(C)[C@H]6CC[C@]5(C)[C@H]4[C@H](C)C(=O)CCC(C)C)[C@@H]3OC(C)=O)OC[C@@H](O)[C@@H]2O)c(C)c1 (stereo partly drawn)	1.18 µM
CCOC(=O)c1ccc2nc(NC(=O)COC(=O)CSc3nc(C)cc(C)n3)sc2c1	> 100 µM
O=C(/C=C/c1ccc(-c2ccccc2[N+](=O)[O-])o1)NCc1ccc(C(=O)NCCc2ccccc2)cc1	> 100 µM
CN(C)CCOC(=O)COc1ccc(Cl)cc1	> 100 µM
S=C(N/N=C\C=N/NC(=S)N1CCCCCC1)N1CCCCCC1	> 100 µM

Inquiry: Tell me the measured TGI of CC(NC(=O)/C(=C/c1ccccc1O)NC(=O)c1ccccc1)C(=O)O (stereo not drawn) , please.
Reply text: 37.2 µM

Inquiry: Tell me the measured TGI of C=CCC(CNC(=O)OCc1ccccc1)O[Si](C)(C)C(C)(C)C (stereo not drawn) , please.
Reply text: > 100 µM

Inquiry: Tell me the measured TGI of Cc1ccc(S(=O)(=O)N(/N=C(\N)Oc2ccc(Cl)cc2)C(=N)Oc2ccc(Cl)cc2)cc1 , please.
Reply text: > 100 µM

----------
System: HS 578T breast
Experiment: NCI tumour cell line growth inhibition, 48 h
Measured property: TGI

CC(=O)OCC1OC(OC2C(COC(C)=O)OC(OCCC[S-])C(OC(C)=O)C2OC(C)=O)C(OC(C)=O)C(OC(C)=O)C1OC(C)=O.[Au+].c1ccc(CN2[CH-]N(Cc3ccccc3)C(c3ccccc3)=C2c2ccccc2)cc1 (stereo not drawn)	87.7 µM
Cc1ccc(Cl)cc1Nc1nc(C(F)(F)F)ccc1C(=O)Nc1cccc(C(F)(F)F)c1	20 µM
O=[N+]([O-])c1cccc([N+](=O)[O-])c1S(=O)(=O)c1ccccc1	43.9 µM
COc1ccc2c(c1)CCC1C2CC[C@@]2(C)C1CC[C@@]2(O)CNC(=O)/C=C/c1ccc(O)c(OC)c1 (stereo partly drawn)	> 100 µM
C=CCC(CNC(=O)OCc1ccccc1)O[Si](C)(C)C(C)(C)C (stereo not drawn)	> 100 µM

Inquiry: Tell me the measured TGI of CCOC(=O)c1nc2c3c(ncn2n1)Oc1c(c(-c2ccccc2)nn1-c1ccccc1)C3c1ccc(Cl)cc1 (stereo not drawn) , please.
Reply text: > 100 µM

Inquiry: Tell me the measured TGI of O=P(Oc1ccc(Cl)cc1)(Oc1ccc(Cl)cc1)N1CC1 , please.
Reply text: > 10 µM

Inquiry: Tell me the measured TGI of O=C(Nn1c(-c2ccccc2)nc2ccccc2c1=O)c1ccccn1 , please.
Reply text: > 100 µM

----------
System: BT-549 breast
Test: NCI tumour cell line growth inhibition, 48 h
Measured property: TGI (µM)
Kindly answer with a numeric value in µM, unit omitted.

Inquiry: Tell me the measured TGI of CN(C)C[C@H]1CC[C@@H](CN(C)C)C1=O , please.
Reply text: 14.1

Inquiry: Tell me the measured TGI of CCCCCCCCCCCCn1c(C)nc2ccccc21 , please.
Reply text: 28.7

Inquiry: Tell me the measured TGI of COc1ccc2c(c1)CCC1C2CC[C@@]2(C)C1CC[C@@]2(O)CNC(=O)/C=C/c1ccc(O)c(OC)c1 (some centres undefined) , please.
Reply text: 75.7

Inquiry: Tell me the measured TGI of N#Cc1c(Nc2ccc(F)cc2)[n+]([O-])c2ccc(Cl)cc2[n+]1[O-] , please.
Reply text: 74.4

----------
System: OVCAR-8 ovarian
Assay: NCI tumour cell line growth inhibition, 48 h
Measured property: TGI

Here are 3 compounds together with their reported answers.
CN(CCc1ccc(Cl)c(Cl)c1)[C@H]1CCCC[C@H]1N1CCCC1	> 100 µM
CS(=O)(=O)OCCN1CCC2(CC1)SSC1(CCN(CCOS(C)(=O)=O)CC1)S2	> 100 µM
COc1ccc(/C=C/c2cc(O)cc(OC)c2)cc1	> 100 µM

Inquiry: Tell me the measured TGI of Cc1ccc(S(=O)(=O)N(/N=C(\N)Oc2ccc(Cl)cc2)C(=N)Oc2ccc(Cl)cc2)cc1 , please.
Reply text: > 100 µM

Inquiry: Tell me the measured TGI of COc1ccc(C2(c3ccc(OC)cc3)OC(=O)c3cccc4cccc2c34)cc1 , please.
Reply text: > 100 µM

Inquiry: Tell me the measured TGI of O=[N+]([O-])c1cccc([N+](=O)[O-])c1S(=O)(=O)c1ccccc1 , please.
Reply text: 6.21 µM

Inquiry: Tell me the measured TGI of O=C(c1ccccc1)C1C(C(=O)c2ccccc2)N1Cc1ccccc1 (stereo unspecified) , please.
Reply text: > 100 µM

Inquiry: Tell me the measured TGI of C(=N\Nc1nnc2c(n1)[nH]c1ccccc12)/c1cccnc1 , please.
Reply text: > 100 µM

Inquiry: Tell me the measured TGI of C/C(=C/CO[Si](C)(C)C(C)(C)C)C(=O)N(C)c1ccccc1I , please.
Reply text: 32.2 µM

Inquiry: Tell me the measured TGI of CN=C(Nn1cnnc1)OC , please.
Reply text: > 100 µM

Inquiry: Tell me the measured TGI of CC(=O)N(CN1C(=O)CCC1C(=O)O)c1ccccc1 (stereo unspecified) , please.
Reply text: > 100 µM
